Recorded measurements of inhibition, one per entry
# test.system: UniProt:P03956
# Sequence (P03956 whole entry): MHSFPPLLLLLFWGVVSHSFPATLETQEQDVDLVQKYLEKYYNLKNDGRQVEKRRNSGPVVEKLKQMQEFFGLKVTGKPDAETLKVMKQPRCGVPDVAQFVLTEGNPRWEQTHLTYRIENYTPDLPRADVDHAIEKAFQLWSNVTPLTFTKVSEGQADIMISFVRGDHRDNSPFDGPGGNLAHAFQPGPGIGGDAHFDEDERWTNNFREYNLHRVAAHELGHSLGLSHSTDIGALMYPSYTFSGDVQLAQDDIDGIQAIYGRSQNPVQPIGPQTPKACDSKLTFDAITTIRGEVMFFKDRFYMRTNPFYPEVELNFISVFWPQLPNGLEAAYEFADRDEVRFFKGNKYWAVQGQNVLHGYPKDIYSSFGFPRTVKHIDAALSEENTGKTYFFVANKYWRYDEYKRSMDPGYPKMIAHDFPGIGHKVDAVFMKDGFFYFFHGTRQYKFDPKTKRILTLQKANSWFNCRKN
# assay.details: Percent inhibition against matrix metalloprotease-1 at 1 uM
Could you give me the number in %? Just the number is fine.

Example entries and their recorded answers appear below.
CC#CCOc1ccc(S(=O)(=O)N2CCCN(C(=O)OC(C)(C)C)CC2C(=O)NO)cc1 (stereo not given)
26
CC#CCOc1ccc(S(=O)(=O)N2CCCN(S(C)(=O)=O)CC2C(=O)NO)cc1 (stereo not given)
40
CC#CCOc1ccc(S(=O)(=O)N2CCCN(S(=O)(=O)c3ccccc3)CC2C(=O)NO)cc1 (stereo not given)
39
CC#CCOc1ccc(S(=O)(=O)N2CCCN(C(=O)NCCCCCC)CC2C(=O)NO)cc1 (stereo not given)
34

Identify the measured inhibition of CC#CCOc1ccc(S(=O)(=O)N2CCCN(C(=O)CCCN(C)C)CC2C(=O)NO)cc1 (stereo not given) for UniProt:P03956.
19
